PROTOCOL NOTES: inhibition of 3D7 malaria parasite growth – strain 3D7 (AID 2306);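 further: 0% = DMSO wells and 100% = chloroquine plus artemisinin control wells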
CONDITION LABEL: P. falciparum 3D7 erythrocytic growth, LDH absorbance, 72 h; at 2 µM; hits give high values

COMPOUND	UNIT	growth inhibition
COc1ccccc1C1CCN(C2CCC(NC(=O)/C=C/c3cc(F)cc(C(F)(F)F)c3)CC2)CC1 (configuration not stated)	%	98
CN(C)CCOc1ccnc2ccc(NC(=O)Cc3ccc(-c4ccncc4)c4ccccc34)cc12	%	100
O=C(/C=C/c1ccc(Cl)c(Cl)c1)NCCCCCN1CCCN(C(=S)Nc2ccc(Cl)c(Cl)c2)CC1	%	96
COc1cccc(CNC[C@@H](O)[C@H](Cc2ccccc2)NC(=O)c2cc(N3CCCC3=O)c3[nH]cc(C(C)C)c3c2)c1	%	96
Oc1cc(Nc2ccnc3cc(-c4cccc(CN5CCOCC5)c4)ccc23)c(F)cc1Cl	%	100
CC(C)(C)Oc1ccc(C[C@@H]2NC3(C(=O)N(Cc4ccc(Cl)c(Cl)c4)c4ccccc43)C3C(=O)N(c4ccc(Br)cc4)C(=O)C32)cc1 (some centres not stated)	%	86
NC(=O)COc1c(C2CCN(CCCCNC(=O)c3ccc(-c4ccc(Cl)cc4)c(O)c3)CC2)ccc2c1CCCC2	%	101
Clc1ncccc1-c1nc(NCCC(c2ccccc2)c2ccccc2)no1	%	94
O=C(CCNc1ccnc(NCCc2ccccc2)n1)Nc1ccccc1	%	89
CN(C(=O)Nc1ccc(C(F)(F)F)cc1)C1CCN(CCCCCNC(=O)/C=C/c2ccc(Cl)c(Cl)c2)CC1	%	101
CCn1cc(C(=O)O)c(=O)c2cc(F)c(N3CCN(S(=O)(=O)c4ccc(N)cc4)CC3)cc21	%	90
CCOc1ccc(-n2nc3c(Cl)nnc(-c4ccccc4)c3c2-c2ccccc2)cc1	%	96
COc1ccc(-c2ccc(NC(=O)c3cccc(C#N)c3)cc2)cc1CN1CCN(C)CC1	%	100
Cc1cc(N)nc2ccc(-c3ccc(CN)cc3)cc12	%	100
O=C(N[C@H]1CCN(Cc2ccc(OCCCN3CCCCC3)cc2)C1)c1ccc(Cl)c(Cl)c1	%	102
COc1ccccc1/C=C/C(=O)N(C)C1CCN(CCCCCNC(=O)/C=C/c2ccc(Cl)c(Cl)c2)CC1	%	83
Cc1cc(N[C@@H](Cc2ccccc2)C(=O)NCc2cccs2)nc(NCC2CCCCC2)n1	%	100
O=C(Nc1ccc(Cl)cc1)Nc1ccc(-c2ccc(-c3nc4ccccc4[nH]3)cc2)cc1	%	101
CC(C)(C)N1CCC(N(Cc2ccc(-c3ccc(C(F)(F)F)cc3)cc2)C(=O)Cn2c(CCc3cccc(F)c3F)cc(=O)c3ccccc32)CC1	%	100
COc1cc(C(=O)NC2CC(C)(C)NC(C)(C)C2)ccc1-c1cc2cc(Cl)c(Cl)cc2[nH]1	%	99
CCCCCCC(C)c1cc(O)c2c(c1)OC(=O)CC2(CC)c1ccccn1 (configuration not stated)	%	100
Nc1nc(N)c2cc3ccc(OCc4ccccc4)cc3nc2n1	%	100
O=C(c1ccc(O)c(-c2cc(Cl)cc(Cl)c2)c1)N(CCO)CCO	%	94
C[C@@H](CNc1ccnc(Nc2ccc3[nH]c(=O)[nH]c3c2)n1)c1ccccc1	%	100
OCC1CCN(Cc2cccc(-c3ccc(-c4nc5ccc(C(F)(F)F)cc5[nH]4)cc3)c2)CC1	%	101
Cc1cc(-c2ccc(CNC3Cc4ccccc4C3)cc2)ccc1S(=O)(=O)NCCN1CCCC1	%	101
COCCNC(=O)C1CCN(C(c2ccc(Cl)cc2)c2ccc(Cl)cc2)CC1	%	86
COC(=O)c1ccc(NC(=O)Nc2cccc(CCNCc3ccccc3)c2)cc1	%	96
O=C(O)Cc1ccc(-c2c[nH]c3ncc(-c4cccc5ncccc45)cc23)cc1	%	95
NC(=O)c1cccc(C(=O)Nc2cccc(-c3csc(-c4nc5ccccc5[nH]4)c3)c2)c1	%	101
CCCCCCC(C)c1cc(OCCN(CC)CC)c2c(c1)OC(C)(C)C=C2c1ccncc1 (configuration not stated)	%	90
Nc1cc(-c2ccc3c(N)nccc3c2)ccc1Cl	%	91
CC(=O)Nc1ccc(CN(Cc2ccc(F)cc2)Cc2cccc(Oc3ccccc3)c2)cc1	%	88
C[C@H]1CN(Cc2cccc(-c3cc(CNC(=O)c4cccc(CN5CCN(C/C=C/c6ccccc6)CC5)c4)ccc3F)c2)CCN1	%	98
COc1ccc(CNCc2cccc(-c3ccc(-c4nc5ccccc5[nH]4)cc3)c2)cc1	%	101
FC(F)(F)c1cc(Nc2ncnc3ccc(Br)cc23)ccc1OCc1ccccc1	%	87
O=C(NCCNc1noc(-c2sccc2Br)n1)c1ccc(Cl)cc1	%	93

Recorded values, source PubChem BioAssay.
